test system: ATCC 35822 Isoniazid Resistant; test: microbe, parasite or virus in culture; type: cell-based; details: Mycobacterium tuberculosis, ATCC35822, read-out: MIC Value, ATCC 35822 Isoniazid Resistant
# Lookup of reported MIC keyed by entry
measure_name: MIC

1) C[C@@H]1COc2c(N3CCN(C(=N)NC(=N)N4CCN(c5c(F)cc6c(=O)c(C(=O)O)cn7c6c5OC[C@@H]7C)CC4)CC3)c(F)cc3c(=O)c(C(=O)O)cn1c23 [BVS-76D (XVII)] : 0.625 µg/mL
2) CC1COc2c(N3CCN(C(=N)NC#N)CC3)c(F)cc3c(=O)c(C(=O)O)cn1c23 (stereo not shown) [BVS-60C (XVII)] : 0.625 µg/mL
3) NNC(=O)c1ccncc1 [Isoniazid, isoniazid, reference compound] : > 8 µg/mL
4) C[C@@H]1COc2c(N3CCN(C(=N)NC(=N)NCCCCCCNC(=N)NC(=N)N4CCN(c5c(F)cc6c(=O)c(C(=O)O)cn7c6c5OC[C@@H]7C)CC4)CC3)c(F)cc3c(=O)c(C(=O)O)cn1c23 [BVS-85A (XVII)] : 1.25 µg/mL

From: patent US20140073631A1
